Ref: PubChem BioAssay (NCI)

System: HOP-92 NSCLC
Assay: NCI-60 one-dose screen, 48 h (100 = growth as untreated, 0 = no growth, -100 = all killed)
Details: 10 µM
About 83,000 compounds went through this panel and 20% of them were active in at least one assay; those are over-represented in the sample as a whole.
Rule: y for growth not less than 70%, n for anything less.

Solved entries (count: 5):
O=S(=O)(Nc1ncccn1)c1ccc(-n2c(-c3ccccc3)nc(-c3ccccc3)c2-c2ccccc2)cc1; y
NC(=Nc1ccc(OCCCCCCCCn2ccnn2)cc1)c1ccccc1; y
O=C(Nc1ccc(OCC(=O)c2ccccc2)cc1)Nc1ccc(Cl)c(C(F)(F)F)c1; n
COc1cccc(-c2ccc(/C=N/NC(=O)c3[nH]c4ccc(Br)cc4c3-c3ccccc3)o2)c1; n
O=C(NO)c1ccc(-c2nc3ccc4[nH]ncc4c3c3c2CCCC3)cc1; n

[in] Is it the case that `Cc1cc(C(F)(F)F)ccc1C(=O)Nc1sc2c(c1C#N)CCC(=O)C2` has growth reaching or exceeding 70%?
[out] n

[in] Is it the case that `COc1ccc(-c2ccc(SCC(=O)Nc3ccc(C#N)cc3)nn2)cc1` has growth reaching or exceeding 70%?
[out] y

[in] Is it the case that `COc1ccc2[nH]cc(/C=N/Nc3cccc(Cl)n3)c2c1` has growth reaching or exceeding 70%?
[out] n

[in] Is it the case that `Cc1ccc(C(=O)N/C(=C2/OCCN2C)[P+](c2ccccc2)(c2ccccc2)c2ccccc2)cc1` has growth reaching or exceeding 70%?
[out] n

[in] Is it the case that `O=C(CSc1nnc(-c2ccc3nc(-c4ccccc4)[nH]c3c2)o1)Nc1ccc(Br)cc1` has growth reaching or exceeding 70%?
[out] y

----------
growth values, listed per item
Test system: SNB-19 CNS
Assay: NCI-60 one-dose screen, 48 h (100 = growth as untreated, 0 = no growth, -100 = all killed)
Conditions: 10 µM
Compounds without any hit were thinned out: in the full panel of roughly 83,000, 20% have a hit.
Your answer is read as %, so omit the unit and give the number.

Some solved entries appear below for comparison.
CC(=O)Nc1ccc(-c2cn(-c3cccc(C(=O)Nc4cccc(OC(F)(F)F)c4)c3)nn2)cn1; 113
CC(=O)Nc1ccc(-n2cnc3cc(-c4ccc(O)cc4)ccc32)cc1C; 58.4
COc1ccc(C(C)=C(c2ccc(OCCCN(C)C)cc2)c2ccc(OCCCN(C)C)cc2)cc1; -97.4
CCOC(=O)C1=C(N)N(c2ccccc2)C2=C(C(=O)CC(C)(C)C2)C1c1ccccc1OC (centres undefined); 92.2
CN1CCN(c2ccc(Nc3nc(N4CCN(S(=O)(=O)c5ccc(F)cc5)CC4)c4sccc4n3)cc2)CC1; -98.1
CCCCCCCCCCCCCCCCCCCC(=O)NCCc1c[nH]c2ccc(OC(=O)CCCC(=O)OCCOOCCOOCCOOCCOOCCOOCCOOCCOOCCOOCCOOCCOOCCOOCCOC)cc12; 69.1
COc1ccc2[nH]c(O)c(N=NC(=O)COc3ccc(NC(=O)Nc4ccc(Cl)cc4)cc3)c2c1; 3.67
CC(=O)NCC1=C(C)C=C2C(=O)[C@](C)(O)C3(CC3)C(C)=C21; -49.8

Could you now consider this next molecule?
[in] May I ask what growth has been recorded for `O=C(CNc1nc(-c2ccccc2)cs1)Nc1ccc(Cl)cc1[N+](=O)[O-]` ?
[out] 5.15
